Below, each entry is listed alongside its reported log10 IC50.
Target: GST-AMPKα2/ß1/γ1 complex (full-length human AMPKα2) (Homo sapiens, UniProt P54619+P54646+Q9Y478)
Sequence (P54646 whole entry): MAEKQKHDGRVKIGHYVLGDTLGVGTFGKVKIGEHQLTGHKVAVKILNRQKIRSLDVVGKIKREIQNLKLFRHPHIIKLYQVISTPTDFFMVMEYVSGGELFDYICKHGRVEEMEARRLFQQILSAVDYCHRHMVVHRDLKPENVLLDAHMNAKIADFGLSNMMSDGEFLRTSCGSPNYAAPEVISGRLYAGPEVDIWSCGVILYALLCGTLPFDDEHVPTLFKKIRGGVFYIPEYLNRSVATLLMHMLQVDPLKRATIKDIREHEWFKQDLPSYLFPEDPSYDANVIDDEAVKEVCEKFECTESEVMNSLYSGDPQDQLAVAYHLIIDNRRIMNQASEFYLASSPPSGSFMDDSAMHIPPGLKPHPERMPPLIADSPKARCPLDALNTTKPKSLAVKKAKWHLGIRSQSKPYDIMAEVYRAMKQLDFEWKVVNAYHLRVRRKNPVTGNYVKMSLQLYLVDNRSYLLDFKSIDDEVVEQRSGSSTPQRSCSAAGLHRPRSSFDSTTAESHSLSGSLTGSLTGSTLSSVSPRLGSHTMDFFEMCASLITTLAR
Sequence (Q9Y478 whole entry partner): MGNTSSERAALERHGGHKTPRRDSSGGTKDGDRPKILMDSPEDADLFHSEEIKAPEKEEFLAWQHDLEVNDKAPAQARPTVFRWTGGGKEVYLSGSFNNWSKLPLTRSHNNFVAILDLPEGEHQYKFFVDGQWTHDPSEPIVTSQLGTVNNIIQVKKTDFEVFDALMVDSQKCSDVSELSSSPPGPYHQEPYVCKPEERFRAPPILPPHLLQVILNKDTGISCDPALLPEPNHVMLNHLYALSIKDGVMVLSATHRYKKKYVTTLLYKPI
Sequence (P54619 whole entry partner): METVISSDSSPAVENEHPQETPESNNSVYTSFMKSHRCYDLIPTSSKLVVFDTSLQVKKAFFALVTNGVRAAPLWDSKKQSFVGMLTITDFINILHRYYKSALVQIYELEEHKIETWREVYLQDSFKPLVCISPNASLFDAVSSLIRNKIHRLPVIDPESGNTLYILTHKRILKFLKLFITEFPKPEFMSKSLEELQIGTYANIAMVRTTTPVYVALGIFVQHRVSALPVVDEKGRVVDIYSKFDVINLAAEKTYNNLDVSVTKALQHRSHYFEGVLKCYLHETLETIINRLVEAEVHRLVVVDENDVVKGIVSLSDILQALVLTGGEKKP
Test: AMPK high ATP assay (TR-FRET-based AMPK activity inhibition assay)
Details: ATP concentration of 1 mM; median; read-out: AMPK high ATP assay IC50 [mol/l] (median)
A difference of one corresponds to tenfold IC50; all values are log10 with IC50 in nM.

CC1=C(C#N)C(c2cc3c(NC(=O)c4ccc(OCCN5CCCC5)cc4)n[nH]c3c(C)c2F)C(C#N)=C(C)N1C	1.13
C=Cc1c(F)c(C2C(C#N)=C(C)N(C)C(C)=C2C#N)cc2c(NC(=O)c3cc(C)nn3CC)n[nH]c12	2.18

Note log10 IC50 for the molecule shown: CCc1c(F)c(C2C(C#N)=C(C)N(C)C(C)=C2C#N)cc2c(NC(=O)c3ccnn3C(C)C)n[nH]c12 2.14

Note log10 IC50 for the molecule shown: CC1=C(C#N)C(c2cc3c(NC(=O)c4c(F)cccc4F)n[nH]c3c(C)c2F)C(C#N)=C(C)N1C 1.29

Note log10 IC50 for the molecule shown: COCCn1cc(C(=O)Nc2n[nH]c3c(C)c(F)c(C4C(C#N)=C(C)N(C)C(C)=C4C#N)cc23)c(C(F)(F)F)n1 0.89

Note log10 IC50 for the molecule shown: CC1=C(C#N)C(c2cc3c(NC(=O)C(C)c4cccnc4)n[nH]c3c(C)c2F)C(C#N)=C(C)N1C (racemic) 1.92

Note log10 IC50 for the molecule shown: CC1=C(C#N)C(c2cc3c(NC(=O)C45C6C7C4C4C5C6C74C(=O)N4CCC4)n[nH]c3c(C)c2F)C(C#N)=C(C)N1C (stereo not shown) 2.02
